All values here come from patent US10112928B2.

Target: recombinant human SYK360-635 (Spleen Tyrosine Kinase) (Homo sapiens (Human))
Experiment: SYK kinase assay (33P ATP incorporation into biotinylated peptide)
Conditions: purified truncated SYK aa 360-635, 20 μM ATP; read-out: Syk_IC50
Procedure: Determination of IC50 of Spleen Tyrosine Kinase (SYK) Inhibition: SYK kinase assay is a standard kinase assay adapted to a 96 well plate format. This assay is performed in 96-well format for IC50 determination with […] which represented 10 half log dilutions and a 40 μL reaction volume. […] Phosphorylated products were detected upon termination of reactions with EDTA and the addition of Streptavidin coated beads. […]
Mark MET only when IC50 stays strictly below 100 nM. Values equal to the cut-off are NOT MET.

{"Compound": "Cc1cc(C)cc(Nc2cc(Cl)nnc2C(N)=O)c1 [Compound I-14]", "Target entity": "recombinant human SYK360-635 (Spleen Tyrosine Kinase) (Homo sapiens (Human))", "Class assignment": "NOT MET"}
{"Compound": "Cc1ccc(Nc2cc(NC(CN)CC(C)C)nnc2C(N)=O)nc1C(C)C (centres unmarked) [Compound I-15]", "Target entity": "recombinant human SYK360-635 (Spleen Tyrosine Kinase) (Homo sapiens (Human))", "Class assignment": "MET"}
{"Compound": "CC(C)(C)c1cccc(Nc2cc(NCC3(N)CC3)nnc2C(N)=O)n1 [Compound I-19]", "Target entity": "recombinant human SYK360-635 (Spleen Tyrosine Kinase) (Homo sapiens (Human))", "Class assignment": "NOT MET"}
{"Compound": "Cc1cccc(Nc2cc(Oc3cccnc3)nnc2C(N)=O)n1 [Compound I-5]", "Target entity": "recombinant human SYK360-635 (Spleen Tyrosine Kinase) (Homo sapiens (Human))", "Class assignment": "NOT MET"}
{"Compound": "Cc1cccc(Nc2cc(Oc3ccccc3)nnc2C(N)=O)n1 [Compound I-1]", "Target entity": "recombinant human SYK360-635 (Spleen Tyrosine Kinase) (Homo sapiens (Human))", "Class assignment": "NOT MET"}
